- assay.target: human orexin-2 receptor (hOX2R) (Homo sapiens)
- Sequence (O43614 1-444): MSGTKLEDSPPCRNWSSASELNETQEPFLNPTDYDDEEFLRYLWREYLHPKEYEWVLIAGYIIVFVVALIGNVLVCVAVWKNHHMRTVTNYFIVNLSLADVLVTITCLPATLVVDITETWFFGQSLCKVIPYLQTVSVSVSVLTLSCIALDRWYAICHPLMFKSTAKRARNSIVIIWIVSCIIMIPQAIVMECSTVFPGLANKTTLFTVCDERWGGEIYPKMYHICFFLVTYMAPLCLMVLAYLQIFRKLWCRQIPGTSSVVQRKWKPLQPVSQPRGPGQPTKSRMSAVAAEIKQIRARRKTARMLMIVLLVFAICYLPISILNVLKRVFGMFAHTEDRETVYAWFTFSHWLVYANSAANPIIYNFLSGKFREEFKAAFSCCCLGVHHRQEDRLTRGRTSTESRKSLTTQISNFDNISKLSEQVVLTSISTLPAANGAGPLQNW
- protocol.text: FLIPR Ca2+ Flux Assay, CHO cells expressing the human orexin-2 receptor
- experimental.setup: agonist 70 pM Ala-6,12 human orexin-A
Listed here are compounds together with their documented IC50.
Only the number, expressed in nM, is required.

Cc1ccnc(O[C@@H]2CC[C@@H](C)N(C(=O)c3cc(F)ccc3-n3nccn3)C2)c1 32

The measured IC50 associated with Cc1ccnc(O[C@@H]2CC[C@@H](C)N(C(=O)c3nccnc3-c3ccccn3)C2)c1 reads 40

The measured IC50 associated with Cc1ccnc(O[C@@H]2CC[C@@H](C)N(C(=O)c3ccccc3-n3nccn3)C2)c1 reads 16

----------
- assay.target: human orexin-2 receptor (hOX2R) (Homo sapiens, UniProt O43614)
- protocol.text: FLIPR Ca2+ Flux Assay, CHO cells expressing the human orexin-2 receptor
- experimental.setup: agonist 70 pM Ala-6,12 human orexin-A
property.label: IC50 (nM)
Only the number, expressed in nM, is required.

Examples with their reported IC50 follow.
Cc1ccnc(O[C@@H]2CC[C@@H](C)N(C(=O)c3ccsc3-c3ncccn3)C2)c1 69
Cc1ccnc(O[C@@H]2CC[C@@H](C)N(C(=O)c3ccccc3-n3ncnn3)C2)c1 17
COc1ccc(C(=O)N2C[C@H](Oc3cc(C)ccn3)CC[C@H]2C)c(-n2nccn2)n1 117

The measured IC50 associated with Cc1ccnc(O[C@@H]2CC[C@@H](C)N(C(=O)c3ccccc3CS(C)(=O)=O)C2)c1 reads 73

----------
- assay.target: hOX1R (Homo sapiens, UniProt O43613)
- Sequence (O43613 whole entry): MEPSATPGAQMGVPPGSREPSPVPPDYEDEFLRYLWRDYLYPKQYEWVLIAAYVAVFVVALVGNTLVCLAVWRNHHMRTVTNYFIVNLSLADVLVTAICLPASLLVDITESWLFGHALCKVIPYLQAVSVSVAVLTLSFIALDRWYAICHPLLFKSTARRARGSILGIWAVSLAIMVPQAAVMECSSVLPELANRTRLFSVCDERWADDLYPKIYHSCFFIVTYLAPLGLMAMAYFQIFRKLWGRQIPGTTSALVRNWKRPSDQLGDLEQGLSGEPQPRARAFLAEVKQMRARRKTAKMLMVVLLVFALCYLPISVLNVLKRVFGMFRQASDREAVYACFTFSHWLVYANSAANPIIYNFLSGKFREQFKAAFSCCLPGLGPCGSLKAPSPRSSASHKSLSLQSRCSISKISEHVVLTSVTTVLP
- protocol.text: FLIPR Ca2+ Flux Assay, CHO cells expressing the orexin-1 receptor
- experimental.setup: agonist 70 pM Ala-6,12 human orexin-A
property.label: IC50
Please report the result as a number followed by the unit.

Cc1ccnc(O[C@@H]2CC[C@@H](C)N(C(=O)c3cccc(F)c3-n3nccn3)C2)c1 0.964 µM
Cc1ccnc(O[C@@H]2CC[C@@H](C)N(C(=O)c3ccc(C)cc3-n3nccn3)C2)c1 2.34 µM
Cc1ccnc(O[C@@H]2CC[C@@H](C)N(C(=O)c3ccccc3-n3ncnn3)C2)c1 1.48 µM
Cc1ccnc(O[C@@H]2CC[C@@H](C)N(C(=O)c3ccccc3-c3ncccn3)C2)c1 0.98 µM

Fill in: hOX1R (Homo sapiens, UniProt O43613) IC50 for Cc1ccnc(O[C@@H]2CC[C@@H](C)N(C(=O)c3ncccc3-c3noc(C)n3)C2)c1 = 7.03 µM
